Molecular target: N-type calcium channel (Homo sapiens, UniProt Q00975)
Sequence (Q00975 whole entry): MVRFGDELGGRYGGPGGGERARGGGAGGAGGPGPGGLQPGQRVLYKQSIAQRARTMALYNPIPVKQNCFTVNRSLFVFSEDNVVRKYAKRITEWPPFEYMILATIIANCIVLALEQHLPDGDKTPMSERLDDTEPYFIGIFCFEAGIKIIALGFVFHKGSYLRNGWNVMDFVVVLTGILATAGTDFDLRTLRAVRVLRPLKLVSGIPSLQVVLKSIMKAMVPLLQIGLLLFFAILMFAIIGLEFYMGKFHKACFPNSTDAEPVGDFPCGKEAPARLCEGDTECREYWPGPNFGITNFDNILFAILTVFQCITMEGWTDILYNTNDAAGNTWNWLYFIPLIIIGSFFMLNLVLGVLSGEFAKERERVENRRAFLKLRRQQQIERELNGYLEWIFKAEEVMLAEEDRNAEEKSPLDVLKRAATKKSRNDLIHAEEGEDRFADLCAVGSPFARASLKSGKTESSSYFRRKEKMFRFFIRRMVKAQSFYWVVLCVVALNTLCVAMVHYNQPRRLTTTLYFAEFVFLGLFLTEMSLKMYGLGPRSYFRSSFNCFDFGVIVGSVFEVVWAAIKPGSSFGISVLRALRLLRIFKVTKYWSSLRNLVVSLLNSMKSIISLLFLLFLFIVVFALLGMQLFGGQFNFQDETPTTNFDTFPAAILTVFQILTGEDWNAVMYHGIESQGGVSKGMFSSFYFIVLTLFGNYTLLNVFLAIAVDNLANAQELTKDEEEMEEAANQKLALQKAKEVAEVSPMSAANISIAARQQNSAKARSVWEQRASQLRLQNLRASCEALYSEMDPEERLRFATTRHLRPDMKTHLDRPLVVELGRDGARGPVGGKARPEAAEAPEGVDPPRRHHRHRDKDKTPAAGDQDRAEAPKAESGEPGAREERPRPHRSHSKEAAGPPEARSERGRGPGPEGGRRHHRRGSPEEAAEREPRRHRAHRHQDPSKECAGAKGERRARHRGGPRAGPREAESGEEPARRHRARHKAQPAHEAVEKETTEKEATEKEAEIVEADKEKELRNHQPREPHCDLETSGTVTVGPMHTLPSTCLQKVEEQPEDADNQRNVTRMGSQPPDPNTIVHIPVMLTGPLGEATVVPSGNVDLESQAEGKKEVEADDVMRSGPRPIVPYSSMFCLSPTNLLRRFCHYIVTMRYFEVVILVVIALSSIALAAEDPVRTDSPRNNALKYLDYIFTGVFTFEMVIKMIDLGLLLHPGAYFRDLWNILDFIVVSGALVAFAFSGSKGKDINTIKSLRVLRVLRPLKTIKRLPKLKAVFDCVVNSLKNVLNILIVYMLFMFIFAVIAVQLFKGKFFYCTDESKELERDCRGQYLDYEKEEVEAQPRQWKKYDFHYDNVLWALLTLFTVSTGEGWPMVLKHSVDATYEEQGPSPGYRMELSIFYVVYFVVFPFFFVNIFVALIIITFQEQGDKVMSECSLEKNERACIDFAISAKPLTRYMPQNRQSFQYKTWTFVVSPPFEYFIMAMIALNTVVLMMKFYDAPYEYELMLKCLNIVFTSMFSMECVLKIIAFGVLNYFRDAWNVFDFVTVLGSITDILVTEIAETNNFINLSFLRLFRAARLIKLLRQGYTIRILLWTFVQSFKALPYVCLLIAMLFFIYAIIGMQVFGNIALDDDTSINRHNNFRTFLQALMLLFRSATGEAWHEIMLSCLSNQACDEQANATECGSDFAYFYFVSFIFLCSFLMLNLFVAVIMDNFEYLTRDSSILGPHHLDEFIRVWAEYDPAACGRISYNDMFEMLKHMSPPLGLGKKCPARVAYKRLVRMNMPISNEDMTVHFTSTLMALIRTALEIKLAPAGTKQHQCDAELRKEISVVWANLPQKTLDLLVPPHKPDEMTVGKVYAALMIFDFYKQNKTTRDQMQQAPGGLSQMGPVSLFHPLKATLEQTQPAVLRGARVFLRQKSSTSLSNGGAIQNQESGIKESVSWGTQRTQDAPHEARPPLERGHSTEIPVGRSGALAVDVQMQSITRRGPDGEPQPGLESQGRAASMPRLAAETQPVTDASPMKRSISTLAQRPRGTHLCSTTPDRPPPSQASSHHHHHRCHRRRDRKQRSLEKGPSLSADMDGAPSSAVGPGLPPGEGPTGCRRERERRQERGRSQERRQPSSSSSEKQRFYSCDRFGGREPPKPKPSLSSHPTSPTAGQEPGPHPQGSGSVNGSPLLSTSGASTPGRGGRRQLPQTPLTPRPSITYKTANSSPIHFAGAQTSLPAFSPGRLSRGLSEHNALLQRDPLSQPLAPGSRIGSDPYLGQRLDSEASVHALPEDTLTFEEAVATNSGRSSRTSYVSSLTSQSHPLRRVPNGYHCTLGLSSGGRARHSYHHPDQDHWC
Sequence (P54284 whole entry partner): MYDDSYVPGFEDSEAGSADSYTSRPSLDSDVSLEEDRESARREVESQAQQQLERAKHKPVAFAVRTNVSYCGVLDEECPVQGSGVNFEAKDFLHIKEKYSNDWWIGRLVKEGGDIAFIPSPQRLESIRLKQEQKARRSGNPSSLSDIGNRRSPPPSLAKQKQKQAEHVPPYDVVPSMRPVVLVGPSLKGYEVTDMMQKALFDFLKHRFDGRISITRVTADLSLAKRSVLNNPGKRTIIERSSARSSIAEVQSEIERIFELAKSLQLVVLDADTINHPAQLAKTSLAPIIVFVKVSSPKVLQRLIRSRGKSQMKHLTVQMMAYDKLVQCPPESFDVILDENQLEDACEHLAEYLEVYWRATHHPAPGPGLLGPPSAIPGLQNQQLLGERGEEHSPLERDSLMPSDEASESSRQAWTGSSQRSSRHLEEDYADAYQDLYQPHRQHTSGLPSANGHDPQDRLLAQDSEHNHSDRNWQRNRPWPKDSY
Sequence (P54289 25-946 partner limits assumed): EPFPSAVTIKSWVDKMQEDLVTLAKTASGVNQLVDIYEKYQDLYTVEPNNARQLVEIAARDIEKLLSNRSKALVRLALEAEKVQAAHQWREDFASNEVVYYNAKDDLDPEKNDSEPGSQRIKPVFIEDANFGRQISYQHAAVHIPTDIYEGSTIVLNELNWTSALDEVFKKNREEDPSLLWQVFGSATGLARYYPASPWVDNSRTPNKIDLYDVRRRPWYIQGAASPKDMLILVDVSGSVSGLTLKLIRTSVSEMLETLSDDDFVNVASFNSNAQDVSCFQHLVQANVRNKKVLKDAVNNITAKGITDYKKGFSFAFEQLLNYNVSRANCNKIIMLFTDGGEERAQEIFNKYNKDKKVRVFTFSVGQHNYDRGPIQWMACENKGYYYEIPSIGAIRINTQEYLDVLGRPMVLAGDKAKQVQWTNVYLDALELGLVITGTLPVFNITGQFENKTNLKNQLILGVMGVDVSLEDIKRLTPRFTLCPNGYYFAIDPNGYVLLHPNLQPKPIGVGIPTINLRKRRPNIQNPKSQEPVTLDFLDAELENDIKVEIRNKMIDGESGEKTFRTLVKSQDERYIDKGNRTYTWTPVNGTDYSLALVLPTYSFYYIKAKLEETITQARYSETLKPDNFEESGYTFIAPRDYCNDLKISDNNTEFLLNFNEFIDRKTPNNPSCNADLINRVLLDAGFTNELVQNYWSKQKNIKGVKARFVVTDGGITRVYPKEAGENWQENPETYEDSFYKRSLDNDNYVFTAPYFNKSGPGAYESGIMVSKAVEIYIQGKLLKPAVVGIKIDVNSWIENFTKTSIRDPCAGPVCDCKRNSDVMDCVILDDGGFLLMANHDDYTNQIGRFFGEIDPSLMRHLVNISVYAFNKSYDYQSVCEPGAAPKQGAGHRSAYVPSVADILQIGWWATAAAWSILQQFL
Sequence (P54289 947-1103 partner limits assumed): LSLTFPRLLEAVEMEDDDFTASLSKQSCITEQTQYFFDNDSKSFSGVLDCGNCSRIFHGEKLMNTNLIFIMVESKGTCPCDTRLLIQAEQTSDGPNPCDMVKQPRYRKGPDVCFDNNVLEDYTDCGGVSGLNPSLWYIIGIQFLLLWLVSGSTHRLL
Experiment: Automated Electrophysiology Assay (QPatch-HT whole-cell patch clamp; low- and high-frequency stimulation)
Assay type: cell-based
Conditions: low frequency; 0.1 μM; read-out: QPatch at Low Frequency % Inhibition
Please use Satisfied whenever inhibition at 0.1 µM is not below 20%, and Not satisfied whenever it is.

Below are worked cases with known answers.
In [3]: df
Out[3]:
                                   molecule   answer_label
0  COc1ccccc1-n1nc2c(c1-c1ccc(Cl)cc1)CC1(C2)O[C@H](C)[C@@H](C)O1  Not satisfied
1  COc1ccccc1-n1nc2c(c1-c1ccc(C#N)cc1)CC1(C2)OCC(C)(C)CO1      Satisfied
2  COc1ccccc1-n1nc2c(c1-c1ccc(Cl)cc1)CC(OC(=O)N1CCOCC1)C2 (stereo not drawn)  Not satisfied
3  COc1ccccc1-n1nc2c(c1-c1ccc(N(C)C)nc1)CC1(C2)OC(C)(C)C(C)(C)O1  Not satisfied
4  COc1ccccc1-n1nc2c(c1-c1ccc(Cl)cc1)CC(OC(=O)N(C)C)C2 (stereo not drawn)      Satisfied
5  COc1ccccc1-n1nc2c(c1-c1ccc(Cl)cc1)CC1(C2)O[C@@H](C)C[C@H](C)O1 (stereo partly drawn)  Not satisfied
6  COc1ccccc1-n1nc2c(c1-c1ccc(Cl)cc1)C[C@H](OC1CCCC1)C2  Not satisfied
7  COc1ccccc1-n1nc2c(c1-c1ccc(Cl)cc1)C[C@H](OC(=O)C1CCC1)C2  Not satisfied

**Query** Can COc1ccccc1-n1nc2c(c1-c1ccc(C)nc1)CC1(C2)OC(C)(C)C(C)(C)O1 be said to have inhibition at 0.1 µM at or above 20%?
**Result** Not satisfied

**Query** Is it the case that COc1ccccc1-n1nc2c(c1-c1ccc(Cl)cc1)CC(NS(C)(=O)=O)C2 (stereo not drawn) has inhibition at 0.1 µM reaching or exceeding 20%?
**Result** Not satisfied

Data origin: patent US8853418B2
